Please go through the items and note down their inhibition at 0.001 µM.
Tested On: PI3Kα (Homo sapiens)
Construct: purchased SignalChem P27-122DH
Sequence (P42336 whole entry): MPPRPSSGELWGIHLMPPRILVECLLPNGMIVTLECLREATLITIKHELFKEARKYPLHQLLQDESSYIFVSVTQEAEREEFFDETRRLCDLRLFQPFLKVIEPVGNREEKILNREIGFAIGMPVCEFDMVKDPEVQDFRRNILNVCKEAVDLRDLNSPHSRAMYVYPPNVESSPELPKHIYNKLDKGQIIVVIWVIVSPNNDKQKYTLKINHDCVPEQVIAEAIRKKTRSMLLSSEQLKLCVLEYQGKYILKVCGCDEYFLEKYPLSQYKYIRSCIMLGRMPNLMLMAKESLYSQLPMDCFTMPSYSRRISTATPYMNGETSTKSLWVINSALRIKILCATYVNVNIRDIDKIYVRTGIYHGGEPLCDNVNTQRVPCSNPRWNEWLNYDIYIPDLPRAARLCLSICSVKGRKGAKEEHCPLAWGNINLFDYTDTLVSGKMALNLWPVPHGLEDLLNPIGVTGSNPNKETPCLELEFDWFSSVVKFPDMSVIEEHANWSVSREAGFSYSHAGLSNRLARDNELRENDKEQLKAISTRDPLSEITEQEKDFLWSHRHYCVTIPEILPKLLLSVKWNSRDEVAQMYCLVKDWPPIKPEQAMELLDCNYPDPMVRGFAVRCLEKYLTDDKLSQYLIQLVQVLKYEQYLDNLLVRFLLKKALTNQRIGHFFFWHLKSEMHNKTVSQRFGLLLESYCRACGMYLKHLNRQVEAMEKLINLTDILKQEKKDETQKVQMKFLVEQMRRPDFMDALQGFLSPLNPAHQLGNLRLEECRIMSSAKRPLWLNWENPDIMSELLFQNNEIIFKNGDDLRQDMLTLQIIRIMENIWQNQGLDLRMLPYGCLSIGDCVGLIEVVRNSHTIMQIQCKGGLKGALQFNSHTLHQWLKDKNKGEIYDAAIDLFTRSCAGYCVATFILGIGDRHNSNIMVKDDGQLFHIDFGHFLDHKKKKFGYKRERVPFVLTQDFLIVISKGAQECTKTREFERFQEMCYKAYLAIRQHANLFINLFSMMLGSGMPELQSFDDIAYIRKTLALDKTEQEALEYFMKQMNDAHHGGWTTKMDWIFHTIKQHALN
Sequence (P27986 whole entry partner): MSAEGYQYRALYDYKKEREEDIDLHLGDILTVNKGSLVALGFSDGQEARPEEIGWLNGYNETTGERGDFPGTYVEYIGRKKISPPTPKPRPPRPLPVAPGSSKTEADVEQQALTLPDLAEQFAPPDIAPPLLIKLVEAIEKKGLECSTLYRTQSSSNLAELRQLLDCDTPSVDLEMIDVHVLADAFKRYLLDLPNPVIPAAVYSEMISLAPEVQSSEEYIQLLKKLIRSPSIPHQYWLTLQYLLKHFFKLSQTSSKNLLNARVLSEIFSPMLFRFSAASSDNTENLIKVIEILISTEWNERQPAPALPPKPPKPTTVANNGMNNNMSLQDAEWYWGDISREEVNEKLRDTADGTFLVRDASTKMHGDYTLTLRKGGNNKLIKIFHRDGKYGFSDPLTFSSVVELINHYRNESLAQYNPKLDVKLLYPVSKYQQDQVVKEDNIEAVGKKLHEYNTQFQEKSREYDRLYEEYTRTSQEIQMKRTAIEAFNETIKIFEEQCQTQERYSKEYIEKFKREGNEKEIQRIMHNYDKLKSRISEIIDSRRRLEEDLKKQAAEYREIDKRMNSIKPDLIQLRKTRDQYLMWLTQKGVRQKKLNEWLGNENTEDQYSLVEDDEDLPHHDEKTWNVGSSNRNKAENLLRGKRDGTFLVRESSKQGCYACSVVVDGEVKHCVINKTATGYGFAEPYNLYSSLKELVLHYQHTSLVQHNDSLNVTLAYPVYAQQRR
Test Protocol: ADP-Glo kinase assay, PI3Kα enzyme inhibition
Assay type: biochemical
Condition Set: Table 1; at 1 nM
Experimental: The enzymatic inhibitory assays of all target compounds against PI3Kα were performed with the ADP-Glo assay (Promega, Madison, WI, USA, catalog No. V9102/3). Briefly, compounds were continuously diluted to a certain concentration. […] The mixture was added to a 96-well plate and incubated in a dark place at ambient temperature for 40 min. […] The kinase detection reagent was added and the signal was collected via PerkinElmer Envision plate reader (PE, Boston, MA, USA).
Record the value in %, omitting the unit from your answer.

Form field - read-out: inhibition at 0.001 µM; system: PI3Kα (Homo sapiens); submitted item: COc1ncc(-c2ccc3c(c2)sc2c(OCCN(C)C)ncnc23)cc1NS(=O)(=O)c1ccc(F)cc1F [11k]
13

Next: COc1ncc(-c2ccc3c(c2)sc2c(N4CCC(C)CC4)ncnc23)cc1NS(=O)(=O)c1ccc(F)cc1F [11b]
10

Quick one: COc1ncc(-c2ccc3c(c2)sc2c(NCCN(C)C)ncnc23)cc1NS(=O)(=O)c1ccc(F)cc1F [11h]
12

Also, COc1ncc(-c2ccc3nccc(-c4ccnnc4)c3c2)cc1NS(=O)(=O)c1ccc(F)cc1F [Omipalisib, reference compound] please.
89

Do the same for COc1ncc(-c2ccc3c(c2)sc2c(NC4CC4)ncnc23)cc1NS(=O)(=O)c1ccc(F)cc1F [11d] please
40

Likewise for COc1ncc(-c2ccc3c(c2)sc2c(N4CCOCC4)ncnc23)cc1NS(=O)(=O)c1ccc(F)cc1F [11a] ?
10

Now the same for COc1ncc(-c2ccc3c(c2)sc2c(NCCCN4CCOCC4)ncnc23)cc1NS(=O)(=O)c1ccc(F)cc1F [11j]
10
